# assayed-system: human orexin-1 receptor (Homo sapiens)
# Sequence (O43613 1-425): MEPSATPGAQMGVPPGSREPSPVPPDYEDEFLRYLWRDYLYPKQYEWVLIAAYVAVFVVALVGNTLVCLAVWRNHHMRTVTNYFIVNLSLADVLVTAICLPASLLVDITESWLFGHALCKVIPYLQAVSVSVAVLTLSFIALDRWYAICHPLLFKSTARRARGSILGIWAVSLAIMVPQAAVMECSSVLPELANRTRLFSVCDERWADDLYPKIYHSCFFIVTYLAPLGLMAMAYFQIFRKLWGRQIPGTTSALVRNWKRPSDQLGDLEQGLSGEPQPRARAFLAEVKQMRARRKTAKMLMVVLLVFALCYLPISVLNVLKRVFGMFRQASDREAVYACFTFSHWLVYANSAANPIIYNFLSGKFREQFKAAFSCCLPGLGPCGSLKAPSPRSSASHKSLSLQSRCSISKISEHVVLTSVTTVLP
# assay-info: Intracellular calcium measurement (FLIPR), orexin-1 receptor antagonism
# measurement-context: CHO cells expressing human orexin-1 receptor; 3 nM orexin-A agonist; read-out: IC50 OX1R
# IC50 listing for each entry below
Record the value in nM, omitting the unit from your answer.

In the examples that follow, each entry is paired with its recorded IC50.
mol-smiles	unit-spec	IC50
Cc1nn2c(C(=O)N3CCC[C@@H](C)[C@H]3CNc3ccc(C(F)(F)F)cn3)c(-c3ccc(F)cc3)nc2s1	nM	13
O=C(c1c(-c2ccccc2F)nc2sccn12)N1CCC[C@H]1Cn1ccc(-c2ccccc2)n1	nM	12
C[C@@H]1CCCN(C(=O)c2c(-c3ccccc3)nc3sccn23)[C@@H]1CNc1ccc(C(F)(F)F)cn1	nM	18
CCc1cnc(NC[C@@H]2[C@H](C)CCCN2C(=O)c2c(-c3ccccc3)nc3sccn23)nc1	nM	270
O=C(c1c(-c2ccc(F)cc2)nc2scnn12)N1CCC[C@H]1Cn1ccc(-c2ccccc2)n1	nM	7

Now for another entry.
## Task Fill in IC50 for record "C[C@@H]1CCCN(C(=O)c2c(-c3ccccc3)nc3occn23)[C@@H]1CNc1ccc(C(F)(F)F)cn1"
## Result 11

###

# assayed-system: human orexin-1 receptor (Homo sapiens, UniProt O43613)
# Construct: expressed in transfected cells; host or cells: CHO cells (G418 selection)
# assay-info: Intracellular calcium measurement (FLIPR), orexin-1 receptor antagonism
# Assay type: cell-based
# measurement-context: CHO cells expressing human orexin-1 receptor; 3 nM orexin-A agonist; read-out: Kb OX1R
# Kb listing for each entry below
Record the value in nM, omitting the unit from your answer.

mol-smiles	Kb [nM]
O=C(c1c(-c2ccc(F)cc2)nc2scnn12)N1CCC[C@H]1Cn1ccc(-c2ccccc2)n1	1.5
C[C@@H]1CCCN(C(=O)c2c(-c3ccccc3)nc3sccn23)[C@@H]1CNc1ccc(C(F)(F)F)cn1	4
C[C@@H]1CCCN(C(=O)c2c(-c3ccccc3)nc3occn23)[C@@H]1CNc1ccc(C(F)(F)F)cn1	2

## Task Fill in Kb for record "CCc1cnc(NC[C@@H]2[C@H](C)CCCN2C(=O)c2c(-c3ccccc3)nc3sccn23)nc1"
## Result 57

## Task Fill in Kb for record "O=C(c1c(-c2ccccc2F)nc2sccn12)N1CCC[C@H]1Cn1ccc(-c2ccccc2)n1"
## Result 3

## Task Fill in Kb for record "Cc1nn2c(C(=O)N3CCC[C@@H](C)[C@H]3CNc3ccc(C(F)(F)F)cn3)c(-c3ccc(F)cc3)nc2s1"
## Result 3
